Tested on: CEM cells HIV-1 protection, formazan growth assay
Experiment: NCI AIDS Antiviral Assay
Conditions: measured here: growth of uninfected CEM cells
Protocol: The ability of compounds to protect human CEM cells from HIV-1 infection is measured as a screen for new compounds capable of inhibiting the HIV virus. Five concentrations of drug were tested on uninfected and infected cells and cell growth was measured using a soluble formazan assay. […] Compounds that provided at least 50% protection were retested. Compounds that provided at least 50% protection on retest were listed as moderately active. […]
Measured IC50 by item

Would you please look over these solved cases?
CC(C)[C@H]1CO[C@]2(C)[C@@H]3CN(Cc4ccccc4)C[C@@H]3C(=O)N12 : > 214 µM
CC(=O)NNc1nc(C)c(C(=O)NNC(=O)C(=O)Nc2c(Cl)cc([N+](=O)[O-])cc2Cl)s1 : > 74.1 µM

Record Nc1ncnc2c1ncn2C1C=CC(CO)CC1 (stereo not drawn) has CEM cells HIV-1 protection, formazan growth assay IC50 equal to > 200 µM
